Test: melting temperature; fluorescence melt of hairpins on a sequencing array, two-state fit, raised by 9.35 °C to match UV melts
Conditions: sodium 0.088 M
READOUT: Tm
Give me the value, and tack the unit on after it.

Recorded Tm, per entry:
RESIDUE_STRING: GCTGTGCGAAAGCCCCGC ((.(.((....)).).))
READOUT: Tm
ASSAY_RESULT: 31.1 °C
//
RESIDUE_STRING: GCGTACCCACGC ((((....))))
READOUT: Tm
ASSAY_RESULT: 53.1 °C
//
RESIDUE_STRING: GCAAGTGGAAACGCTTGC (((((.(....).)))))
READOUT: Tm
ASSAY_RESULT: 54.9 °C
//
RESIDUE_STRING: GGAAACGGAAACGCTTCC ((((.((....)).))))
READOUT: Tm
ASSAY_RESULT: 43.4 °C
//
RESIDUE_STRING: GCTTGCGAAAGCAAAAGC ((((((....)))..)))
READOUT: Tm
ASSAY_RESULT: 52.8 °C
//
RESIDUE_STRING: GATCGGGGTCCCGATC ((((((....))))))
READOUT: Tm
ASSAY_RESULT: 61 °C
//
RESIDUE_STRING: GTTGCCCCGAAAGGGAAC (((..(((....))))))
READOUT: Tm
ASSAY_RESULT: 39.2 °C
//
RESIDUE_STRING: GATCGGTGTACCGATC ((((((....))))))
READOUT: Tm
ASSAY_RESULT: 65.8 °C
//
RESIDUE_STRING: GGTTGTGGAAACACGACC (((.(((....))).)))
READOUT: Tm
ASSAY_RESULT: 54.5 °C

# next sequence below
Summary for this sequence, GATCTACGGTAGATC ((((((...)))))) : Tm is 41.4 °C
